Cited source for all entries: the supplement of paper PMC10307832

# Tested on: NCI-H1651
# TEST_NAME: relative viability (nuclei count vs DMSO), 5 days (fraction); higher = more cells survive
# STATED_CONDITIONS: first compound 0.01581 µM
READOUT: relative viability
One number for each entry.

Study these solved cases before continuing.
Nc1ccn([C@@H]2O[C@H](CO)[C@@H](O)[C@@H]2O)c(=O)n1 [Cytarabine] + Cc1nc(Nc2ncc(C(=O)Nc3c(C)cccc3Cl)s2)cc(N2CCN(CCO)CC2)n1 [Dasatinib] (partner 0.075 µM) | 0.457
COc1cc2nccc(Oc3ccc(NC(=O)Nc4cc(C)on4)c(Cl)c3)c2cc1OC [Tivozanib] + CCNC(=O)c1noc(-c2cc(C(C)C)c(O)cc2O)c1-c1ccc(CN2CCOCC2)cc1 [Luminespib] (partner 0.01 µM) | 0.638
Nc1ccn([C@@H]2O[C@H](CO)[C@@H](O)[C@@H]2O)c(=O)n1 [Cytarabine] + Cc1cc(Nc2cc(N3CCN(C)CC3)nc(Sc3ccc(NC(=O)C4CC4)cc3)n2)n[nH]1 [Tozasertib] (partner 0.1 µM) | 0.707
COc1cc2nccc(Oc3ccc(NC(=O)Nc4cc(C)on4)c(Cl)c3)c2cc1OC [Tivozanib] + NC(=O)Nc1cc(-c2cccc(F)c2)sc1C(=O)N[C@H]1CCCNC1 [AZD7762] (partner 0.2 µM) | 0.429
COc1cc2nccc(Oc3ccc(NC(=O)Nc4cc(C)on4)c(Cl)c3)c2cc1OC [Tivozanib] + CC(=O)c1c(C)c2cnc(Nc3ccc(N4CCNCC4)cn3)nc2n(C2CCCC2)c1=O [Palbociclib] (partner 0.5 µM) | 0.516

Enter recorded relative viability with NCI-H1651 for Nc1ccn([C@@H]2O[C@H](CO)[C@@H](O)[C@@H]2O)c(=O)n1 [Cytarabine] + C[C@@H](Oc1cc(-c2cnn(C3CCNCC3)c2)cnc1N)c1c(Cl)ccc(F)c1Cl [Crizotinib] (partner 1 µM) here.
0.904
